Origin of values: paper PMC9386376

target: GST-tagged MDM2 (Homo sapiens, UniProt Q00987); construct: purchased Cisbio Co. Ltd; assay: HTRF enzyme inhibition assay, MDM2; format: biochemical; settings: compound at 1 μM
Sequence (Q00987 whole entry): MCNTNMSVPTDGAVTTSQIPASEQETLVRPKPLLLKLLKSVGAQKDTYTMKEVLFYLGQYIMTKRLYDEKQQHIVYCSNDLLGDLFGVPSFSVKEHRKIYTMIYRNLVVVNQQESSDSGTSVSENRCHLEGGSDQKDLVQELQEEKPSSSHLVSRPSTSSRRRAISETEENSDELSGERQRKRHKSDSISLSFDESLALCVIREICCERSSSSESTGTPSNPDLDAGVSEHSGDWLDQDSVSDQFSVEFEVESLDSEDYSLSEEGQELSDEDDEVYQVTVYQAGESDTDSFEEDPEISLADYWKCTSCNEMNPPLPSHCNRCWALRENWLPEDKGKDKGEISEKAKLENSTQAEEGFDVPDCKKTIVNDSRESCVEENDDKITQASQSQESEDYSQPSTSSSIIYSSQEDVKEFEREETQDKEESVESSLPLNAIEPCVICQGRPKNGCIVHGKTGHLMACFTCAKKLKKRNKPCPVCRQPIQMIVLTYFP
// inhibition at 1 µM lookup, one value per entry
A number alone suffices; assume %.

# example entries with known answers
| STRUCTURE_SMILES | inhibition at 1 µM, % |
| --- | --- |
| O=C(CCCCCCC(=O)Nc1ccc([C@@H]2[C@H]3CSCN3[C@]3(C(=O)Nc4ccccc43)[C@H]2C(=O)c2cccc(Br)c2)cc1)NO | 43 |
| Nc1ccccc1NC(=O)CCC(=O)Nc1ccc([C@@H]2[C@H]3CSCN3[C@]3(C(=O)Nc4ccccc43)[C@H]2C(=O)c2ccccc2)cc1 | 50 |

For the molecule `O=C(CCCCC(=O)Nc1ccc([C@@H]2[C@H]3CSCN3[C@]3(C(=O)Nc4ccccc43)[C@H]2C(=O)c2ccccc2)cc1)NO` , what inhibition at 1 µM is on record?
44
